These data points were gathered from ChEMBL document CHEMBL4308859.

protocol: Fraction unbound in rat plasma after 4 hrs by equilibrium dialysis method
Format: ADME, cell-free
Let's look at some molecules and their measured fraction unbound at 4 h.

NC(=O)c1cc(-c2ccc(F)cc2F)n2nc(COc3ccnc(C(F)(F)F)c3)cc2n1
0.03 to 0.12
COc1ccc(-c2cc(C(N)=O)nc3cc(COc4ccnc(C)c4)nn23)c(F)c1
0.03 to 0.12

Looking up NC(=O)c1cc(-c2ccc(F)cc2)n2nc(COc3ccnc(Br)c3)cc2n1 , I found its fraction unbound at 4 h recorded as 0.03 to 0.12

Just so you know, measured fraction unbound at 4 h for COc1ccc(-c2cc(C(N)=O)nc3cc(COc4ccc(C(F)(F)F)nc4)nn23)c(F)c1 came out at 0.03 to 0.12

Entry COc1ccc(-c2cc(C(N)=O)nc3cc(COc4ccnc(C(F)(F)F)c4)nn23)c(F)c1 , fraction unbound at 4 h reported as 0.03 to 0.12
